# Test system: adiponectin
# ASSAY_METHOD_TEXT: Adiponectin secretion in LPS/3T3-L1 adipocytes
# Format: cell-based, murine
# PARTICULARS: at the concentration of maximum stimulation
Quick list: % Stimulation of adiponectin secretion (maximum) per entry.
QUANTITY: % Stimulation of adiponectin secretion (maximum) (%)

INSERT INTO measurements (compound, obs_value) VALUES
  ('COc1ccc2c(c1)c(CC(=O)O)c(C)n2C(=O)c1ccc(Cl)cc1', 9),
  ('CCc1ccc(CCOc2ccc(CC3SC(=O)NC3=O)cc2)nc1 (stereo not shown)', 12),
  ('Cc1c(C)c2c(c(C)c1O)CCC(C)(COc1ccc(CC3SC(=O)NC3=O)cc1)O2 (stereo not shown)', 15),
  ('CC(C)Cc1ccc(C(C)C(=O)O)cc1 (stereo not shown)', 22);

Data origin, for the record: patent US7736677B2
